# credit: PubChem BioAssay AID1963860

- System: CN0375-F725-PDC KRAS spheroid viability;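 note: spheroids exposed to agents for 7 days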
- assay notes: Anticancer human tumor CN0375-F725-PDC patient-derived colon carcinoma cell line growth inhibition [KRAS2]
- details: second compound 0.316 µM; first compound 3.16 µM; active compounds read low; spheroids with HUVEC and MSC
Attribute: viability, T/C
Give the number; % is assumed, so skip it.

1. COc1cc(Nc2ncc3c(n2)-c2ccc(Cl)cc2C(c2c(F)cccc2OC)=NC3)ccc1C(=O)O + CNCc1ccccc1-c1csc(C(C)Nc2nc(C)nc3cc(OC)c(OC)cc23)c1 = 87.3

Can you look up the measured viability, T/C of CC1(C)CCC(CN2CCN(c3ccc(C(=O)NS(=O)(=O)c4ccc(NCC5CCOCC5)c([N+](=O)[O-])c4)c(Oc4cnc5[nH]ccc5c4)c3)CC2)=C(c2ccc(Cl)cc2)C1 + C=CC(=O)N1CCN(c2nc(OCC3CCCN3C)nc3c2CCN(c2cccc4cccc(C)c24)C3)CC1CC#N for me? 42

# query: viability, T/C of entry CC(=O)OC12COC1CC(O)C1(C)C(=O)C(O)C3=C(C)C(OC(=O)C(O)C(NC(=O)OC(C)(C)C)c4ccccc4)CC(O)(C(OC(=O)c4ccccc4)C21)C3(C)C (centres undefined) + CNCc1ccccc1-c1csc(C(C)Nc2nc(C)nc3cc(OC)c(OC)cc23)c1 66.8

May I ask what viability, T/C has been recorded for COc1cc2nccc(Oc3ccc(NC(=O)C4(C(=O)Nc5ccc(F)cc5)CC4)cc3)c2cc1OC + C=CC(=O)N1CCN(c2nc(=O)n(-c3c(C)ccnc3C(C)C)c3nc(-c4c(O)cccc4F)c(F)cc23)C(C)C1 ? 63.8

For the compound shown here, CC(=O)OC12COC1CC(O)C1(C)C(=O)C(O)C3=C(C)C(OC(=O)C(O)C(NC(=O)OC(C)(C)C)c4ccccc4)CC(O)(C(OC(=O)c4ccccc4)C21)C3(C)C (centres undefined) + C=CC(=O)N1CCN(c2nc(OCC3CCCN3C)nc3c2CCN(c2cccc4cccc(C)c24)C3)CC1CC#N , give the reported viability, T/C. 75.9
